tested on: wheat; assay: Test C preemergence; format: in vivo, Triticum aestivum; conditions: preemergence, 31 g ai/ha; visual rating, scale 0 to 100 (0 no effect, 100 complete control), 13 to 15 days
Measured Parameter: Wheat plant response rating
A bare number is all that is needed in reply.

Would you please look over these solved cases?
In [3]: df
Out[3]:
                           structure_string           measured_parameter  value_observed
0  CCCNC(=O)c1cc(CCCl)n(Cc2ccnc(C(F)(F)F)c2)n1  Wheat plant response rating               5
1  CCc1cc(C(=O)NC(C)C)nn1Cc1ccnc(C(F)(F)F)c1  Wheat plant response rating              10
2  CCOc1cc(C(=O)NCC(F)(F)F)nn1Cc1ccnc(C(F)(F)F)c1  Wheat plant response rating              40
3    CCNC(=O)c1cc(CC)n(Cc2ccnc(OC(F)F)c2)n1  Wheat plant response rating               0

Qu. Under wheat: Wheat plant response rating value of `CCc1cc(C(=O)NC2CC2)nn1Cc1ccnc(OCC(F)(F)F)c1` ?
Ans. 0

Qu. Under wheat: Wheat plant response rating value of `O=C(NCC(F)(F)F)c1cc(CCCl)n(Cc2ccnc(C(F)(F)F)c2)n1` ?
Ans. 40

Qu. Under wheat: Wheat plant response rating value of `CCCc1cc(C(=O)NCC)nn1Cc1ccnc(C(F)(F)F)c1` ?
Ans. 5
